Values were extracted from patent US10676446B2.

Biological target: human ATX (autotaxin, ENPP2), His-tagged (Homo sapiens (Human))
Measured IC50 accompanies every entry in the list below.
reported_property: IC50 (µM)

# molecule, reported_property, recorded_measurement
measured = [
    ("CC(C)CC(=O)N1CCN(c2ccc3ncn(CC(=O)NCc4ccc(Cl)c(Cl)c4)c(=O)c3c2)CC1 [Example 59]", "IC50", 0.07),
    ("CN(Cc1ccc(Cl)c(Cl)c1)C(=O)Cn1cnc2ccc(N3CCN(C(=O)C4CCC4)CC3)cc2c1=O [Example 73]", "IC50", 0.006),
    ("Cc1noc(C)c1NC(=O)N1CCN(c2ccc3ncn(CC(=O)NCc4ccc(Cl)c(Cl)c4)c(=O)c3c2)CC1 [Example 86]", "IC50", 0.133),
    ("CN(Cc1ccc(Cl)c(C#N)c1)C(=O)Cn1cnc2ccc(N3CCCN(CC4CCOC4)CC3)cc2c1=O (centres unmarked) [Example 130]", "IC50", 0.111),
    ("CC(C)[C@H](O)C(=O)N1CCC(c2ccc3ncn(CC(=O)N(C)Cc4ccc(Cl)c(Cl)c4)c(=O)c3c2)CC1 [Example 170]", "IC50", 0.014),
    ("CCN(Cc1ccc(Cl)c(Cl)c1)C(=O)Cn1cnc2ccc(N3CCN(C(C)=O)CC3)cc2c1=O [Example 116]", "IC50", 0.016),
    ("CC(=O)N1CCN(c2ccc3ncn(CC(=O)NCc4ccc(C#N)cc4)c(=O)c3c2)CC1 [Example 19]", "IC50", 0.13),
    ("CC(=O)N1CCC(O)(c2ccc3ncn(CC(=O)N(C)Cc4ccc(Cl)c(Cl)c4)c(=O)c3c2)CC1 [Example 184]", "IC50", 0.086),
]
